TESTED_SYSTEM: Low molecular weight protein-tyrosine phosphatase A (Mycobacterium tuberculosis) (UniProt P9WIA1)
Sequence (whole entry): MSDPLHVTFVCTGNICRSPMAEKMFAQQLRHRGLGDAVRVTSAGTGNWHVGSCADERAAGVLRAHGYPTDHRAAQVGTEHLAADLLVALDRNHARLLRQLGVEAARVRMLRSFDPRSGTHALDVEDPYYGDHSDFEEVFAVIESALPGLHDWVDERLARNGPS
METHOD_DESCRIPTION: Inhibition of Mycobacterium tuberculosis recombinant protein tyrosine phosphatase assessed as enzyme activity at 25 uM
Parameters: scale not given: the % may be the effect or the level left
ASSAY_ENDPOINT: Activity (%)

[
  {
    "COMPOUND_STRING": "O=C(/C=C/c1ccc2ccccc2c1)c1cccc([N+](=O)[O-])c1",
    "UNIT_SPEC": "%",
    "VALUE_REPORTED": 84
  },
  {
    "COMPOUND_STRING": "O=C(/C=C/c1ccc2ccccc2c1)c1ccccc1O",
    "UNIT_SPEC": "%",
    "VALUE_REPORTED": 74.6
  },
  {
    "COMPOUND_STRING": "COc1cc(O)c(C(=O)/C=C/c2cccc([N+](=O)[O-])c2)c(OC)c1",
    "UNIT_SPEC": "%",
    "VALUE_REPORTED": 92
  },
  {
    "COMPOUND_STRING": "COc1cc(O)c(C(=O)/C=C/c2cccc3ccccc23)c(OC)c1",
    "UNIT_SPEC": "%",
    "VALUE_REPORTED": 84.4
  },
  {
    "COMPOUND_STRING": "O=C(/C=C/c1cccc2ccccc12)c1cccc(O)c1",
    "UNIT_SPEC": "%",
    "VALUE_REPORTED": 79.5
  },
  {
    "COMPOUND_STRING": "O=C(/C=C/c1ccc2c(c1)OCO2)c1ccccc1O",
    "UNIT_SPEC": "%",
    "VALUE_REPORTED": 103
  }
]
